assay-target: AgBzz1-D1
procedure-summary: SPOT peptide array binding signal intensity (averaged, normalized) (arbitrary units (background-subtracted, floor 0; scale differs between SH3 domains)); higher = stronger binding of the SH3 domain to the peptide
Threshold rule: SPOT peptide array binding signal intensity greater than or equal to 60 is met; below that, not met.

>>> assigned_label("QPQRTAPKPPISAPR")
"not met"
>>> assigned_label("NSMRPPLLIPAATTK")
"not met"
>>> assigned_label("EEEEEHPPLPARRKS")
"not met"
>>> assigned_label("FLIKFTPKFPQSIDH")
"met"
>>> assigned_label("KFIPSRPAPKPPSSA")
"met"
>>> assigned_label("KDKSRPPRPPPKPLH")
"met"
>>> assigned_label("ISNFVPPNLPMRRFK")
"met"
>>> assigned_label("AGKRRLPLVRFKASD")
"not met"
>>> assigned_label("FIRKRAPTPPAPSRS")
"met"
>>> assigned_label("SSTPTTPERPKRKSG")
"not met"
>>> assigned_label("LRWRHKFFLPAIAAI")
"not met"
>>> assigned_label("MARRRLPDRPPNGIG")
"not met"
>>> assigned_label("QHQQRQPKRPKRYSL")
"not met"
>>> assigned_label("DHPKGPPPPPPPDEK")
"met"

Data origin: the supplement of paper PMC4466140
